Some molecules, each annotated with its measured log10 of IC50.
Target: JAK2 (Homo sapiens (Human))
Sequence (O60674 849-1124): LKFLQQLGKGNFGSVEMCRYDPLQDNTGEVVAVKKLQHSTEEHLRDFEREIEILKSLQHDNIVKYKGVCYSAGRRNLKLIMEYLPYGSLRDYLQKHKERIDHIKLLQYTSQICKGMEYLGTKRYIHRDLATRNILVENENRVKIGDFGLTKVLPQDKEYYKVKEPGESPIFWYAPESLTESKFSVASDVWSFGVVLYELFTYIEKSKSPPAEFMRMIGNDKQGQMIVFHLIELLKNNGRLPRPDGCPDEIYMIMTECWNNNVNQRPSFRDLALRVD
Experiment: JAK Caliper Enzyme Assay at 1 mM ATP, JAK2
Assay type: biochemical
Conditions: JAK Caliper enzyme assay
Measurement Kind: log10 of IC50 (log10 of the value in nM)

Molecule | Measurement Kind | Readout Number
Cn1cc(-c2cc3nccnc3c(-c3ccn(C4(CC#N)CN(CC#N)C4)n3)n2)cn1 [Example 481] | log10 of IC50 | 3.55
Cn1cc(-c2cn3ncnc3c(-c3cnn(C4(CC#N)CN(S(C)(=O)=O)C4)c3)n2)cn1 [Example 478] | log10 of IC50 | 3.34
N#CC[C@]1(n2ncc(-c3cc(-c4cnc5ncccn45)cc4ncccc34)n2)C[C@@H](C#N)C1 [Example 417] | log10 of IC50 | 2.46
N#CC[C@]1(n2ncc(-c3cc(-c4ccc(-c5nnn[nH]5)cc4)cc4ncccc34)n2)C[C@@H](C#N)C1 [Example 447] | log10 of IC50 | 2.20
N#CC[C@]1(n2cc(-c3cc(-c4cn[nH]c4)cc4nccn34)cn2)C[C@@H](C#N)C1 [Example 456] | log10 of IC50 | 2.91
Cn1cc(-c2cc3nccnc3c(-c3cnn(C4(CC#N)CN(CC(F)(F)F)C4)c3)n2)cn1 [Example 479] | log10 of IC50 | 1.38
CC(=O)Nc1cccc(-c2cc(-c3cnn(C4(CC#N)CC(C#N)C4)n3)c3cccnc3c2)n1 (stereo not drawn) [Example 377] | log10 of IC50 | 1.52
Cn1cc(-c2cc(-c3ccn(C4(CC#N)CN(CC(F)(F)F)C4)n3)n3ncnc3c2)cn1 [Example 476] | log10 of IC50 | 2.69
N#CCC1(n2ncc(-c3cc(-c4ccc(C(=O)O)cc4)cc4ncccc34)n2)CC(C#N)C1 (stereo not drawn) [Example 436] | log10 of IC50 | 3.05
Cn1cc(-c2cc(-c3cnn(C4(CC#N)CN(S(C)(=O)=O)C4)n3)c3cccnc3c2)ccc1=O [Example 412] | log10 of IC50 | 3.11
